Recorded EC50 by entry
molecular target: T1, human GPC3 on cells (human, UniProt P51654 25-554); test: FACS, Hep3B cells
T1 construct: whole, on cells; over-expressed on CHOK1 cells or endogenous on HEPG2, Hep3B and Huh-7 hepatocellular carcinoma cells; the cell line is named under assay; also called GPC3-CHOK1 cells; human GPC3 over-expressed CHOK1 cells

>  <binder>
52H5D3B8-6# chimeric mAb (antibody, V domains shown, CDR3 mutant of the 52H5D3B8 chimeric mAb (human IgG1); also called 52H5D3B8-6#-VH+VL) VH: QVQLQQSGAELVRPGASVKLSCKALGYTFTDYEMHWVKQTPVHGLEWIGAIHPGSGGTAYNQKFKGKATLTADKFSSTGYMELSSLTSEDSAVYYCTRYYSYAYWGQGTLVTVSA VL: DVVMTQTPLSLPVSLGDQASISCRSSQSLVHSNGNTYLQWYLQKPGQSPKLLIYKVSNRFSGVPDRFSGSGSGTDFILKISRVEAEDLGVYFCFQSIHVPYTFGGGTKLEIK

>  <EC50 (µg/mL)>
0.0664

$$$$
>  <binder>
52H5D3B8-6#-VH3+VL4 (antibody, V domains shown, humanized) VH: QVQLVQSGAEVKKPGASVKVSCKALGYTFTDYEMHWVKQAPGQGLEWIGAIHPGSGGTAYNQKFKGRVTLTADTSTSTVYMELSSLRSEDTAVYYCTRYYSYAYWGQGTLVTVSS VL: DIVMTQTPLSLSVTPGQPASISCRSSQSLVHSNGNTYLQWYLQKPGQSPKLLIYKVSNRFSGVPDRFSGSGSGTDFTLKISRVEAEDVGVYFCFQSIHVPYTFGGGTKLEIK

>  <EC50 (µg/mL)>
0.0629

$$$$
